measurement_target: T1, BMP-12 (UniProt Q7Z4P5 322-450, limits assumed)
T1 construct: also called BMP12/GDF7
T1 sequence (looked up): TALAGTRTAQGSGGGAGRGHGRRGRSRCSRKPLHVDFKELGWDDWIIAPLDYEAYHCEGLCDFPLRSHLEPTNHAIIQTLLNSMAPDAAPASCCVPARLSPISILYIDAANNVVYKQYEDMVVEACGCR
procedure_details: peptide resin, filter plate; load 3: 25 mM Na Acetate pH 5.0
No end group written: not given here.

# binder, 100 mM HAc elution K
measured = [
    ("Ac-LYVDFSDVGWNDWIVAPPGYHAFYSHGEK [BMP2 Full peptide 747]", 2),
    ("Ac-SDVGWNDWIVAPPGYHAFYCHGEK [BMP2 N-trun peptide 750]", 1),
    ("Ac-LYVSDVGWNDWIVK (not fully specified (residue 3); printed as Ac-LYV**SDVGWNDWIVK; also: ** after V3 not explained) [BMP2 C-trunc_2 peptide 746]", 1),
    ("Ac-VAPPGYHAFYSHGEK [BMP2 N-trunc_2 peptide 745]", 0),
    ("Ac-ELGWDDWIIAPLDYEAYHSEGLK [BMP12 N-trun_1S peptide 749]", 2),
    ("Ac-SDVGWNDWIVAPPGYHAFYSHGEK [BMP2 N-trun 1S peptide 751]", 1),
    ("Ac-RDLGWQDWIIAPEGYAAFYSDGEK [BMP5 peptide 748]", 2),
]
